Reported Percent Effect values follow for various compounds
experimental_target: Ubiquitin-activating enzyme e1, putative (Leishmania donovani (strain BPK282A1)) (UniProt E9BSI1)
Sequence (whole entry): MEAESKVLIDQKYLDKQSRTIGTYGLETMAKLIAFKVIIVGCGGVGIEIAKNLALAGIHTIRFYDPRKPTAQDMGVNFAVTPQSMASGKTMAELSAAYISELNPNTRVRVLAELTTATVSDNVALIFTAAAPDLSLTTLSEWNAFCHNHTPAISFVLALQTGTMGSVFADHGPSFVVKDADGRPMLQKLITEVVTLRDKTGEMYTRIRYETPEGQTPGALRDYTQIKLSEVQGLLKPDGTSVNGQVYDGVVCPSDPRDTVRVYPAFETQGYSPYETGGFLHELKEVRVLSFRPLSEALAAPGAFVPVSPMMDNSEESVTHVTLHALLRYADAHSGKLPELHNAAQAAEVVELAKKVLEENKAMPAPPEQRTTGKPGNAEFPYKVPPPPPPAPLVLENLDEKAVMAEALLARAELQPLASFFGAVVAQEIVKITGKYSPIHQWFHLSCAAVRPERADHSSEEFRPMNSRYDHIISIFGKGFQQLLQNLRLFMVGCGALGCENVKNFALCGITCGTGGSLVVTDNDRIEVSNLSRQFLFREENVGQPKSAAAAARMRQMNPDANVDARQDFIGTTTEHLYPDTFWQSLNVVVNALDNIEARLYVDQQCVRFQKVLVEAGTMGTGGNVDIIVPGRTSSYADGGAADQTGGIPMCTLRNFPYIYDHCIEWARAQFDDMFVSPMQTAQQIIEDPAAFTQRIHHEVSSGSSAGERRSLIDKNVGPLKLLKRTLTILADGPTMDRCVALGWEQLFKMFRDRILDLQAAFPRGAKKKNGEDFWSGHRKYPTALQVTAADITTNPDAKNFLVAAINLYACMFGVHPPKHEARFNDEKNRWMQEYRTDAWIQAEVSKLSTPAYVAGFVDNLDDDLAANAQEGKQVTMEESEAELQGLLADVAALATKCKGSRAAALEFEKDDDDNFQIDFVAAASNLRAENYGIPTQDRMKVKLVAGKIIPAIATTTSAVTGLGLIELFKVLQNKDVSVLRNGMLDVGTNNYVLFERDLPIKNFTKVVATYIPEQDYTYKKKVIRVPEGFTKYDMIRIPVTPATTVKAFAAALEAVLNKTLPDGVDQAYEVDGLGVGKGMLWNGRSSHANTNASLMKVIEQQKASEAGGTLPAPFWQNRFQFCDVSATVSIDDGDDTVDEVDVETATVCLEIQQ
procedure_text: Leishmania donovani Ubiquitin Activating Enzyme (LdE1)
Assay type: functional
Design: scale not given: direction of the effect not stated beside the values
study_conditions: 30 µM
Entries with a potency or affinity are not part of this list.
// note: answer is a bare numeric in %

COc1ccccc1CC(=O)N1CCCC(n2nc(C)cc2C)C1 (centres undefined): 0

Prompt: # return recorded Percent Effect for input COc1ccc2c(c1)CN(Cc1nc3c(cnn3C)c(=O)[nH]1)CC2
Response: 15.2

Prompt: # return recorded Percent Effect for input O=C(COCC1CC1)N1CCCC(n2cccn2)C1 (centres undefined)
Response: 13.9

Prompt: # return recorded Percent Effect for input CCC1CN(CC(=O)N2CCC2)CCN1CCOC (centres undefined)
Response: 13.5

Prompt: # return recorded Percent Effect for input Cc1ccc(C)c(OCCN2CCC(N3CCNC3=O)CC2)c1
Response: 10.8

Prompt: # return recorded Percent Effect for input CC(C)n1ccnc1C1CCCN(c2ccccn2)C1 (centres undefined)
Response: 5.33

Prompt: # return recorded Percent Effect for input O=C1NCCCCC1Sc1nnc(C2CC2)n1C1CC1 (centres undefined)
Response: 11

Prompt: # return recorded Percent Effect for input CCN1CCN(C(=O)C(C)N2CCN(Cc3nccn3C)CC2)CC1 (centres undefined)
Response: 2.7

Prompt: # return recorded Percent Effect for input COCCN1CCC(CNC(=O)C2(c3cccc(C)c3)CC2)CC1
Response: 3.8

Prompt: # return recorded Percent Effect for input CCc1ncc2c(n1)CN(CC(=O)NCCOc1ccccc1)CC2
Response: 7.89

Prompt: # return recorded Percent Effect for input Cc1ccc(C(=O)O)cc1S(=O)(=O)Nc1nn(-c2ccccc2)cc1C
Response: 2.74

###

System: Trypanosoma cruzi
procedure_text: Trypanosoma cruzi phosphomannomutase and mannose-1-phosphate guanylyltransferase assay
Assay type: functional
Design: scale not given: direction of the effect not stated beside the values
study_conditions: 10 µM
measured_attribute: Percent Effect (%)
// note: answer is a bare numeric in %

CC1CCN(C(=O)CN(Cc2ccco2)C2CC2)CC1: 6.95
O=C([C@H]1CCCO1)N1CCc2ncnc(NC3CC3)c2CC1: -5.47
CN(Cc1ccsc1)C(=O)Nc1cccnc1N1CCCC1: -7.38

Prompt: # return recorded Percent Effect for input CS(=O)(=O)CCSc1cccc(C#N)c1
Response: -0.291

Prompt: # return recorded Percent Effect for input CCOCCCNC(=O)c1cc(C(C)C)nc(N2CCCCCC2)n1
Response: -5.5

Prompt: # return recorded Percent Effect for input Cc1cc(C)c(CNC(=O)NCC2CCCN2C)c(=O)[nH]1 (configuration not stated)
Response: -4.89

Prompt: # return recorded Percent Effect for input COc1ccccc1CNC(=O)C1=NN(c2ccc(C)cc2)C(=O)CN1
Response: -3.62

Prompt: # return recorded Percent Effect for input O=C(NCCNCC1CNc2ccnn2C1)c1ccc(F)cc1 (configuration not stated)
Response: 8.3

Prompt: # return recorded Percent Effect for input COc1cc(CNC2CCCc3c2cnn3C)cc(OC)c1 (configuration not stated)
Response: 1.6

Prompt: # return recorded Percent Effect for input CC(OCC(F)(F)F)C(=O)NCc1ccc(-n2cncn2)nc1 (configuration not stated)
Response: 4.8

Prompt: # return recorded Percent Effect for input O=C(c1cnccn1)N1CCOC2(CCN(Cc3ccsc3)CC2)C1
Response: 1.16

Prompt: # return recorded Percent Effect for input CCN(Cc1ccc2c(c1)OCO2)Cc1nc(C)no1
Response: -8.96

###

Species on record: Homo sapiens
procedure_text: To identify inhibition of the IFN signalling (Jak-Stat) pathway via expression of an eGFP reporter gene under the control of an IFN-stimulated response element (ISRE) containing MxA promoter.
Format: functional
Design: scale not given: direction of the effect not stated beside the values
study_conditions: 30 µM
Reported Percent Effect values follow for various compounds
// note: answer is a bare numeric in %

Guide cases for Percent Effect, answers given:
Cc1ccc(S(=O)(=O)NC2CC2)cc1C: 28.3
CC(=O)N1CCCCC1c1cc(CO)[nH]n1 (centres undefined): 10.5
Nc1nc(CN2CCCC(Cn3cncn3)C2)nc2ccccc12 (centres undefined): 3.26
Cc1cc(C)nc(NC(=O)C(C)Oc2ccc3c(c2)OCO3)n1 (centres undefined): 5.23
CCc1c(C(=O)NC2CCS(=O)(=O)C2)cnn1-c1ccc(F)cc1 (centres undefined): -14.4
Cc1nc(C)c(CC(=O)Nc2nnc(C)s2)c(=O)[nH]1: 0.477
Cc1csc2c(N3CCC(NCCCc4ccncc4)CC3)ncnc12: -3.09
N#Cc1ccc(N2CCCN(C(=O)CC3CCCO3)CC2)cc1 (centres undefined): 10.8

Prompt: # return recorded Percent Effect for input NS(=O)(=O)N1CCc2ccc(NC(=O)Cc3ccc(F)cc3)cc21
Response: 20.9

Prompt: # return recorded Percent Effect for input c1ccc(CN2CCCC(c3nccnc3-n3ccnc3)C2)cc1 (centres undefined)
Response: 7.14

Prompt: # return recorded Percent Effect for input Cc1cc(-c2cnn(CCNC(=O)C3CCCO3)c2C2CC2)on1 (centres undefined)
Response: 0.87

Prompt: # return recorded Percent Effect for input Cc1cc(CN2CCC(c3ccnn3CCO)CC2)no1
Response: -6.11

Prompt: # return recorded Percent Effect for input O=C(c1ccnnc1)N1C[C@H](Oc2cccnc2)[C@H]2OCCC[C@H]21
Response: -14.6

Prompt: # return recorded Percent Effect for input Cc1ncsc1C(=O)N(C)Cc1cccc(Cl)c1
Response: 7.48

Prompt: # return recorded Percent Effect for input Cc1nc(C)n(CC2CCCN2CCCOc2ccc(F)cc2)n1 (centres undefined)
Response: 7.36

Prompt: # return recorded Percent Effect for input CCN(CC)C(=O)Cn1ccc2cc(NC(=O)C3CC3)ccc21
Response: 4.68

Prompt: # return recorded Percent Effect for input COc1ccc(C2C3=C(COC3=O)Nc3[nH]nc(C)c32)cc1OC (centres undefined)
Response: 8.17

Prompt: # return recorded Percent Effect for input CCN(CC(=O)NC)S(=O)(=O)N1CCCCCC1
Response: 8.47

Prompt: # return recorded Percent Effect for input CSCCCN1CC[C@@H](NC(=O)c2cnccn2)[C@H](O)C1
Response: 5.1

Prompt: # return recorded Percent Effect for input CC(NC(=O)NCCCN(C)S(C)(=O)=O)c1ccncc1 (centres undefined)
Response: 1.71

Prompt: # return recorded Percent Effect for input Cc1cc(NC(=O)NCCc2cccs2)n(C)n1
Response: -9.88

Prompt: # return recorded Percent Effect for input COc1nc2c(cc1C(=O)N1C[C@H](N)C[C@H]1C(=O)NC(C)C)CCC2
Response: 9.52

Prompt: # return recorded Percent Effect for input CCOc1ccnc(N2CCN(C(=O)c3cccc(C#N)c3)CC2)n1
Response: 8.64

Prompt: # return recorded Percent Effect for input CN(CCc1ccccc1)Cc1cc(C(=O)N2CCN(C)C(=O)C2)no1
Response: 5.79
